Reference source for all entries: ChEMBL document CHEMBL4004862

- assay system: CDK8/Cyclin C (Homo sapiens) (UniProt P49336+P24863)
- protocol notes: Inhibition of Alexa647 tracer binding to full length recombinant human His-tagged CDK8/Cyclin C expressed in baculovirus expression system at 0.5 uM preincubated for 20 mins followed by tracer addition measured after 60 mins by TR-FRET based Lanthascreen assay relative to control
recorded metric: inhibition (%)

Below: 3 compounds and their reported inhibition.
{"compound": "CC(=O)N1CCC2(CC1)CC(=O)c1ccc(OCC(=O)Nc3cccc(C(F)(F)F)c3)cc1O2", "inhibition / %": 69}
{"compound": "CN[C@@H]1C[C@H]2O[C@@](C)([C@@H]1OC)n1c3ccccc3c3c4c(c5c6ccccc6n2c5c31)C(=O)NC4", "inhibition / %": 100}
{"compound": "COc1ccc(CC(=O)N2CCN(c3ccc(NC(=O)Nc4cccc(C(F)(F)F)c4)cc3)CC2)cc1", "inhibition / %": 95}

1 = Cc1nc(Nc2ccc(NC(=O)Nc3cccc(C(F)(F)F)c3)cc2)cc(N2CCCCC2)n1
2 = O=C(NCC1CCN(c2nsc(Cc3ccc(F)cc3)n2)CC1)Nc1ccc(Cl)c(Cl)c1
Sorting ascending by inhibition, which comes first: 1 or 2 ? Label of pick, please.
1
(1: 61%, 2: 101%)
